Entry source: ChEMBL document CHEMBL5523691

ASSAY REMARKS: Selectivity index, ratio of LD50 for human A549 cells to MIC80 for Cryptococcus neoformans H99
Assay type: toxicity
TEST SETTINGS: read-out: Selectivity Index
MEASUREMENT KIND: selectivity ratio

Can you look up the measured selectivity ratio of O=C(N/N=C/c1cc(Br)ccc1O)c1cc(Br)c(Br)s1 for me?
267

Name the reported selectivity ratio value associated with the compound O=C(N/N=C/c1ccc(Br)cc1O)c1cc(Br)c(Br)o1
267

Suppose we examine the compound O=C(N/N=C/c1c(O)ccc2ccccc12)c1cncc(Br)c1 ; what selectivity ratio value has been reported?
8

Entry under review: O=C(N/N=C/c1cc(Br)ccc1O)c1cncc(Br)c1 . Reported selectivity ratio?
4

So what does the record say about selectivity ratio for O=C(N/N=C/c1ccc(Br)cc1O)c1ccc(C(F)(F)F)o1 ?
4

What value of measured selectivity ratio is listed for O=C(N/N=C/c1cc(Br)cc(Br)c1O)c1cc(Br)co1 ?
267
